- System under test: human MASP1 (Homo sapiens (Human), UniProt P48740)
- Sequence (P48740 other isoform, or with tags, fused parts or gaps): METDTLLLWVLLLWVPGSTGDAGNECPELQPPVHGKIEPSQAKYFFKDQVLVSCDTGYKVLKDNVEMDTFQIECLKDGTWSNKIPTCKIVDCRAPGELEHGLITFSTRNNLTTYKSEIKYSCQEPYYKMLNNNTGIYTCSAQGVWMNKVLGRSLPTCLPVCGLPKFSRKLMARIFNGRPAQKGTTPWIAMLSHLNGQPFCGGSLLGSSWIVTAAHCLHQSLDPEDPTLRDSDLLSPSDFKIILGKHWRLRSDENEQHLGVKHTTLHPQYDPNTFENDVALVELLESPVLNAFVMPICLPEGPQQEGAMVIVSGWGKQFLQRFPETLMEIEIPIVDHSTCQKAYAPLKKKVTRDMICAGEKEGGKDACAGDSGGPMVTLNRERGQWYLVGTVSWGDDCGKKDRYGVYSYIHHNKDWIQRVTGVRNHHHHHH
- Experiment: Biochemical human MASP1 assay (FRET substrate)
- Conditions: Average IC50; recombinant human MASP1; read-out: human MASP1 IC50
Where a SMILES comes first, the peptide text is derived from it. Bridges are numbered along the chain shown (N, C = ends). [ ]: non-standard residue; d: D form. Oic = O=C(O)[C@@H]1C[C@@H]2CCCC[C@@H]2N1; Ahx = NCCCCCC(=O)O
Observed property: pIC50
Bear in mind: pIC50 is minus log10 of a mol/L concentration; give just that figure.

Compound	pIC50
CC[C@H](C)[C@@H]1NC(=O)CCCCCNC(=O)[C@H]([C@@H](C)CC)NC(=O)[C@@H]2CSSC[C@H](NC1=O)C(=O)N[C@@H](CO)C(=O)N[C@@H](CCCNC(=N)N)C(=O)N[C@@H](CO)C(=O)N[C@@H](CC(C)C)C(=O)N1CCC[C@H]1C(=O)N1[C@@H](C[C@@H]3CCCC[C@@H]31)C(=O)N[C@@H]([C@@H](C)CC)C(=O)N2 [Example 95] (cyclo([Ahx]ICSRSLP[Oic]ICI); disulfide 3-11)	7.00
CC[C@H](C)[C@@H]1NC(=O)[C@H](C)NC(=O)CCCCCNC(=O)C[C@@H](C(N)=O)NC(=O)[C@@H]2CCCN2C(=O)[C@H]([C@@H](C)CC)NC(=O)[C@H]2NC(=O)[C@H]([C@@H](C)CC)NC(=O)[C@@H]3C[C@@H]4CCCC[C@@H]4N3C(=O)[C@H]3CCCN3C(=O)[C@H](CC(C)C)NC(=O)[C@H](CO)NC(=O)[C@H](CCCNC(=N)N)NC(=O)[C@H](CO)NC(=O)[C@H](CSSC2(C)C)NC1=O	8.17

The reported pIC50 value, human MASP1 (Homo sapiens (Human), UniProt P48740), for CC[C@H](C)[C@@H]1NC(=O)[C@H](CN)NC(=O)[C@H](CN)NC(=O)[C@@H]2CCCN2C(=O)[C@H]([C@@H](C)CC)NC(=O)[C@H]2NC(=O)[C@H]([C@@H](C)CC)NC(=O)[C@@H]3C[C@@H]4CCCC[C@@H]4N3C(=O)[C@@H]3CCCN3C(=O)[C@H](CC(C)C)NC(=O)[C@H](CO)NC(=O)[C@H](CCCNC(=N)N)NC(=O)[C@H](CO)NC(=O)[C@H](CSSC2(C)C)NC1=O reads 8.24

====

- System under test: human MASP1 (Homo sapiens (Human), UniProt P48740)
- Experiment: Biochemical human MASP1 assay (FRET substrate)
- Conditions: Average IC50; recombinant human MASP1; read-out: human MASP1 IC50
*1 amine or outer side, *2 acyl side, *3 side chain or, on linkers, in order; H or OH if unused. Where a SMILES comes first, the peptide text is derived from it. Bridges are numbered along the chain shown (N, C = ends). Triazole bridges read from a SMILES are 1,4-linked. [ ]: non-standard residue; d: D form. X6 = O=C(CCC(=O)[*:1])NCCCOCCOCCOCCCN[*:2]; Oic = O=C(O)[C@@H]1C[C@@H]2CCCC[C@@H]2N1; Dap(N3) = [N-]=[N+]=NC[C@H](N)C(=O)O; tBuAla = CC(C)(C)C[C@H](N)C(=O)O; Pen = CC(C)(S)[C@H](N)C(=O)O; Pra = C#CC[C@H](N)C(=O)O; Ahx = NCCCCCC(=O)O
compounds and their reported pIC50
Scale for pIC50: -log10 of concentration given in mol/L; no unit attached.

Lab note: measured pIC50 of CC[C@H](C)[C@@H]1NC(=O)[C@H](C)NC(=O)CCC(=O)NCCCOCCOCCOCCCNC(=O)[C@H](CC(=O)O)NC(=O)[C@@H]2CCCN2C(=O)[C@H]([C@@H](C)CC)NC(=O)[C@H]2NC(=O)[C@H]([C@@H](C)CC)NC(=O)[C@@H]3CCCN3C(=O)[C@@H]3CCCN3C(=O)[C@H](CC(C)(C)C)NC(=O)[C@H](CO)NC(=O)[C@H](CCCNC(=N)N)NC(=O)[C@H](CO)NC(=O)[C@H](CSSC2(C)C)NC1=O [Example 63] (AICSRS[tBuAla]PPI[Pen]IPD; disulfide 3-11; linker N-C via X6) was 7.55

// CC[C@H](C)[C@@H]1NC(=O)[C@H](C)NC(=O)CCCCCNC(=O)CC[C@@H](C(N)=O)NC(=O)[C@@H]2CCCN2C(=O)[C@H]([C@@H](C)CC)NC(=O)[C@H]2NC(=O)[C@H]([C@@H](C)CC)NC(=O)[C@@H]3C[C@@H]4CCCC[C@@H]4N3C(=O)[C@@H]3CCCN3C(=O)[C@H](CC(C)C)NC(=O)[C@H](CO)NC(=O)[C@H](CCCNC(=N)N)NC(=O)[C@H](CO)NC(=O)[C@H](CSSC2(C)C)NC1=O [Example 74] ([Ahx]AICSRSLP[Oic]I[Pen]IPE-NH2; disulfide 4-12; lactam N-15) : pIC50 value = 7.85

Lab note: CC[C@H](C)[C@@H]1NC(=O)CNC(=O)CNC(=O)[C@@H](C)NC(=O)[C@H](CC(=O)O)NC(=O)[C@@H]2CCCN2C(=O)[C@H]([C@@H](C)CC)NC(=O)[C@@H]2CSSC[C@H](NC1=O)C(=O)N[C@@H](CO)C(=O)N[C@@H](CCCNC(=N)N)C(=O)N[C@@H](CO)C(=O)N[C@@H](CC(C)C)C(=O)N1CCC[C@H]1C(=O)N1CCC[C@H]1C(=O)N[C@@H]([C@@H](C)CC)C(=O)N2 [Example 19] (cyclo(CIPD[dA]GGICSRSLPPI); disulfide 1-9) gave pIC50 of 7.31

Form field pIC50, entry CC[C@H](C)[C@@H]1NC(=O)[C@H](C)NC(=O)CNC(=O)[C@@H](N)Cn2cc(nn2)C[C@@H](C(N)=O)NC(=O)[C@@H]2CCCN2C(=O)[C@H]([C@@H](C)CC)NC(=O)[C@@H]2CSSC[C@H](NC1=O)C(=O)N[C@@H](CO)C(=O)N[C@@H](CCCNC(=N)N)C(=O)N[C@@H](CO)C(=O)N[C@@H](CC(C)(C)C)C(=O)N1CCC[C@H]1C(=O)N1CCC[C@H]1C(=O)N[C@@H]([C@@H](C)CC)C(=O)N2 [Example 81] (H-[Dap(N3)]GAICSRS[tBuAla]PPICIP[Pra]-NH2; triazole 1-16; disulfide 5-13) : 7.74
